Test: Solubility of cyclazocine in solvents (equilibration, solids content after solvent evaporation)
Format: physicochemical
Settings: acetone, organic solvent or mixture, acetone; 25° C.; read-out: Solubility
value_type: solubility (µg/mL)
Report as a plain number; the unit µg/mL is understood.

# lookup: solubility of C[C@H]1[C@H]2Cc3ccc(O)cc3[C@]1(C)CCN2CC1CC1
5100

###

Experiment: Solubility of cyclazocine in solvents (equilibration, solids content after solvent evaporation)
Type: physicochemical
Settings: xylene, organic solvent or mixture, xylene; 25° C.; read-out: Solubility
value_type: solubility (µg/mL)
Report as a plain number; the unit µg/mL is understood.

# lookup: solubility of C[C@H]1[C@H]2Cc3ccc(O)cc3[C@]1(C)CCN2CC1CC1 [cyclazocine]
1200

###

Experiment: Solubility of cyclazocine in solvents (equilibration, solids content after solvent evaporation)
Format: physicochemical
Settings: methyl ethyl ketone, organic solvent or mixture, methyl ethyl ketone; 25° C.; read-out: Solubility
value_type: solubility (mg/mL)
Report as a plain number; the unit mg/mL is understood.

# lookup: solubility of C[C@H]1[C@H]2Cc3ccc(O)cc3[C@]1(C)CCN2CC1CC1
16

###

Test: Solubility of cyclazocine in solvents (equilibration, solids content after solvent evaporation)
Type: physicochemical
Conditions: methanol, organic solvent or mixture, methanol; 63° C.; read-out: Solubility
value_type: solubility (mg/mL)
Report as a plain number; the unit mg/mL is understood.

# lookup: solubility of C[C@H]1[C@H]2Cc3ccc(O)cc3[C@]1(C)CCN2CC1CC1
33.2

###

Assay: Solubility of cyclazocine in solvents (equilibration, solids content after solvent evaporation)
Format: physicochemical
Conditions: isopropanol, organic solvent or mixture, isopropanol; 80° C.; read-out: Solubility
value_type: solubility (mg/mL)
Report as a plain number; the unit mg/mL is understood.

# lookup: solubility of C[C@H]1[C@H]2Cc3ccc(O)cc3[C@]1(C)CCN2CC1CC1
26.8

###

Experiment: Solubility of cyclazocine in solvents (equilibration, solids content after solvent evaporation)
Format: physicochemical
Details: ethanol, organic solvent or mixture, ethanol; 25° C.; read-out: Solubility
value_type: solubility (mg/mL)
Report as a plain number; the unit mg/mL is understood.

# lookup: solubility of C[C@H]1[C@H]2Cc3ccc(O)cc3[C@]1(C)CCN2CC1CC1 [cyclazocine]
6.64

###

Experiment: Solubility of cyclazocine in solvents (equilibration, solids content after solvent evaporation)
Format: physicochemical
Conditions: chloroform, organic solvent or mixture, chloroform; 25° C.; read-out: Solubility
value_type: solubility
Don't forget the unit after the value.

# lookup: solubility of C[C@H]1[C@H]2Cc3ccc(O)cc3[C@]1(C)CCN2CC1CC1 [cyclazocine]
7600 µg/mL

###

Assay: Solubility of cyclazocine in solvents (equilibration, solids content after solvent evaporation)
Format: physicochemical
Settings: ethyl acetate, organic solvent or mixture, ethyl acetate; 77° C.; read-out: Solubility
Procedure: For example, taking cyclazocine as the solid, injectable drug material, Table I summarizes the solubility data obtained for this drug in a number of solvents. After equilibration (20-30 min), one ml. of solution was transferred to a tared weighing dish and the solids content determined by solvent evaporation. In particular, the aromatic solvents have little tendency to dissolve it at room temperature.
value_type: solubility (mg/mL)
Report as a plain number; the unit mg/mL is understood.

# lookup: solubility of C[C@H]1[C@H]2Cc3ccc(O)cc3[C@]1(C)CCN2CC1CC1 [cyclazocine]
45

###

Experiment: Solubility of cyclazocine in solvents (equilibration, solids content after solvent evaporation)
Format: physicochemical
Settings: methyl ethyl ketone, organic solvent or mixture, methyl ethyl ketone; 4° C.; read-out: Solubility
value_type: solubility (µg/mL)
Report as a plain number; the unit µg/mL is understood.

# lookup: solubility of C[C@H]1[C@H]2Cc3ccc(O)cc3[C@]1(C)CCN2CC1CC1
9100

###

Experiment: Solubility of cyclazocine in solvents (equilibration, solids content after solvent evaporation)
Format: physicochemical
Settings: toluene, organic solvent or mixture, toluene; 35° C.; read-out: Solubility
value_type: solubility (µg/mL)
Report as a plain number; the unit µg/mL is understood.

# lookup: solubility of C[C@H]1[C@H]2Cc3ccc(O)cc3[C@]1(C)CCN2CC1CC1
1500

###

Test: Solubility of cyclazocine in solvents (equilibration, solids content after solvent evaporation)
Type: physicochemical
Conditions: 75 acetone/25 ethanol (v/v), organic solvent or mixture, 75 acetone/25 ethanol (V/V); 25° C.; read-out: Solubility
value_type: solubility (µg/mL)
Report as a plain number; the unit µg/mL is understood.

# lookup: solubility of C[C@H]1[C@H]2Cc3ccc(O)cc3[C@]1(C)CCN2CC1CC1 [cyclazocine]
4740

###

Assay: Solubility of cyclazocine in solvents (equilibration, solids content after solvent evaporation)
Format: physicochemical
Details: ethyl acetate, organic solvent or mixture, ethyl acetate; 25° C.; read-out: Solubility
value_type: solubility (µg/mL)
Report as a plain number; the unit µg/mL is understood.

# lookup: solubility of C[C@H]1[C@H]2Cc3ccc(O)cc3[C@]1(C)CCN2CC1CC1
6300

###

Test: Solubility of cyclazocine in solvents (equilibration, solids content after solvent evaporation)
Assay type: physicochemical
Conditions: ethyl acetate, organic solvent or mixture, ethyl acetate; 4° C.; read-out: Solubility
value_type: solubility (µg/mL)
Report as a plain number; the unit µg/mL is understood.

# lookup: solubility of C[C@H]1[C@H]2Cc3ccc(O)cc3[C@]1(C)CCN2CC1CC1
2600

###

Assay: Solubility of cyclazocine in solvents (equilibration, solids content after solvent evaporation)
Type: physicochemical
Conditions: toluene, organic solvent or mixture, toluene; 100° C.; read-out: Solubility
value_type: solubility (mg/mL)
Report as a plain number; the unit mg/mL is understood.

# lookup: solubility of C[C@H]1[C@H]2Cc3ccc(O)cc3[C@]1(C)CCN2CC1CC1 [cyclazocine]
15

###

Assay: Solubility of cyclazocine in solvents (equilibration, solids content after solvent evaporation)
Type: physicochemical
Conditions: isopropanol, organic solvent or mixture, isopropanol; 25° C.; read-out: Solubility
Method: For example, taking cyclazocine as the solid, injectable drug material, Table I summarizes the solubility data obtained for this drug in a number of solvents. After equilibration (20-30 min), one ml. of solution was transferred to a tared weighing dish and the solids content determined by solvent evaporation. In particular, the aromatic solvents have little tendency to dissolve it at room temperature.
value_type: solubility (mg/mL)
Report as a plain number; the unit mg/mL is understood.

# lookup: solubility of C[C@H]1[C@H]2Cc3ccc(O)cc3[C@]1(C)CCN2CC1CC1 [cyclazocine]
26.8

###

Assay: Solubility of cyclazocine in solvents (equilibration, solids content after solvent evaporation)
Format: physicochemical
Details: decahydronaphthalene, organic solvent or mixture, decahydronaphthalene; 25° C.; read-out: Solubility
value_type: solubility (µg/mL)
Report as a plain number; the unit µg/mL is understood.

# lookup: solubility of C[C@H]1[C@H]2Cc3ccc(O)cc3[C@]1(C)CCN2CC1CC1 [cyclazocine]
1700

###

Test: Solubility of cyclazocine in solvents (equilibration, solids content after solvent evaporation)
Assay type: physicochemical
Conditions: toluene, organic solvent or mixture, toluene; 50° C.; read-out: Solubility
value_type: solubility (µg/mL)
Report as a plain number; the unit µg/mL is understood.

# lookup: solubility of C[C@H]1[C@H]2Cc3ccc(O)cc3[C@]1(C)CCN2CC1CC1
4000
